# maps each entry to its % inhibition at 300 μM
- Tested on: NCI-H460 cells
- TEST SUMMARY: viability assay of CLIP cyclised peptides on NCI-H460 cells (Example 3, Table 2)
- Assay type: cell-based, human
- CONDITION PARAMETERS: 0.2 μl Nanocin-PRO per well; 96 h; 300 µM

[
  {
    "MOLECULE": "COc1ccc2c(C[C@@H]3NC(=O)[C@@H](NC(C)=O)CSCc4cccc(c4)CSC[C@@H](C(N)=O)NC(=O)CC(c4ccc5ccccc5c4)NC(=O)[C@H](CCCNC(=N)N)NC(=O)C4N(CCC4(C)C)C(=O)CN(C)C(=O)[C@H](CCCNC(=N)N)NC3=O)cc(=O)oc2c1 (single isomer, unassigned) [HILRa CL-15-A, Ac-C[Dac]R[Sar][dmPro]R[Nap]C-NH2]",
    "MEASUREMENT UNITS": "%",
    "% inhibition at 300 μM": 84.5
  },
  {
    "MOLECULE": "COc1ccc2c(C[C@@H]3NC(=O)[C@@H](NC(C)=O)CSCc4cccc(c4)CSC[C@@H](C(N)=O)NC(=O)CC(c4ccc5ccccc5c4)NC(=O)[C@H](CCCNC(=N)N)NC(=O)C4N(CCC4(C)C)C(=O)CN(C)C(=O)[C@H](CCCNC(=N)N)NC3=O)cc(=O)oc2c1 (single isomer, unassigned) [HILRa CL-15-C, Ac-C[Dac]R[Sar][dmPro]R[Nap]C-NH2]",
    "MEASUREMENT UNITS": "%",
    "% inhibition at 300 μM": 88.5
  },
  {
    "MOLECULE": "COc1ccc2c(C[C@@H]3NC(=O)[C@@H](NC(C)=O)CSCc4cccc(c4)CSC[C@@H](C(N)=O)NC(=O)CC(c4ccc5ccccc5c4)NC(=O)[C@H](CCCNC(=N)N)NC(=O)CC(c4ccc5ccccc5c4)NC(=O)CN(C)C(=O)[C@H](CCCNC(=N)N)NC3=O)cc(=O)oc2c1 (single isomer, unassigned) [HILRa CL-17-A, Ac-C[Dac]R[Sar][Nap]R[Nap]C-NH2]",
    "MEASUREMENT UNITS": "%",
    "% inhibition at 300 μM": 98.7
  }
]

====

- System: human non-small cell lung cancer cells (NCIH-460)
- TEST SUMMARY: killing of NCIH-460 cells by CLIPS-cyclised peptides of different warhead length (Table 1)
- Format: cell-based
- CONDITION PARAMETERS: 0.2 μl Nanocin-PRO per well
// label = yes (1) if % inhibition at 1 mM is not less than 3%, otherwise no (0)

[
  {
    "SUBSTANCE": "Ac-C[Sar]PKGPRP[Sar]C-NH2 (CXPKGPRPXC; N-acetyl; C-amide; sarcosines; HILRa-CL-05 Synthesized; Sar (2)..(2) X = Sarcosine; Sar (9)..(9) X = Sarcosine)",
    "CLASS": "no (0)"
  },
  {
    "SUBSTANCE": "Ac-C[Sar][Sar]PKGPRP[Sar][Sar]C-NH2 (CXXPKGPRPXXC; N-acetyl; C-amide; sarcosines; HILRa-CL-06 Synthesized; Sar (2)..(2) X = Sarcosine; Sar (3)..(3) X = Sarcosine; Sar (10)..(10) X = Sarcosine; Sar (11)..(11) X = Sarcosine)",
    "CLASS": "yes (1)"
  },
  {
    "SUBSTANCE": "Ac-CPRGPRPC-NH2 [HILRa-CL-01, CLIPS-cyclised peptide]",
    "CLASS": "yes (1)"
  },
  {
    "SUBSTANCE": "Ac-C[Sar]PRGPKP[Sar]C-NH2 (CXPRGPKPXC; N-acetyl; C-amide; sarcosines; HILRa-CL-08 Synthesized; Sar (2)..(2) X = Sarcosine; Sar (9)..(9) X = Sarcosine)",
    "CLASS": "yes (1)"
  },
  {
    "SUBSTANCE": "Ac-C[Sar][Sar]PRGPRP[Sar][Sar]C-NH2 (CXXPRGPRPXXC; N-acetyl; C-amide; sarcosines; HILRa-CL-03 Synthesized; Sar (2)..(2) X = Sarcosine; Sar (3)..(3) X = Sarcosine; Sar (10)..(10) X = Sarcosine; Sar (11)..(11) X = Sarcosine)",
    "CLASS": "yes (1)"
  },
  {
    "SUBSTANCE": "Ac-CPKGPRPC-NH2 [HILRa-CL-04]",
    "CLASS": "yes (1)"
  },
  {
    "SUBSTANCE": "Ac-C[Sar]PRGPRP[Sar]C-NH2 (CXPRGPRPXC; N-acetyl; C-amide; sarcosines; HILRa-CL-02 Synthesized; Sar (2)..(2) X = Sarcosine; Sar (9)..(9) X = Sarcosine)",
    "CLASS": "no (0)"
  },
  {
    "SUBSTANCE": "Ac-CPRGPKPC-NH2 [HILRa-CL-07]",
    "CLASS": "no (0)"
  },
  {
    "SUBSTANCE": "Ac-C[Sar]PKGPKP[Sar]C-NH2 (CXPKGPKPXC; N-acetyl; C-amide; sarcosines; HILRa-CL-11 Synthesized; Sar (2)..(2) X = Sarcosine; Sar (9)..(9) X = Sarcosine)",
    "CLASS": "no (0)"
  },
  {
    "SUBSTANCE": "Ac-CPKGPKPC-NH2 [HILRa-CL-10]",
    "CLASS": "no (0)"
  },
  {
    "SUBSTANCE": "Ac-C[Sar][Sar]PKGPKP[Sar][Sar]C-NH2 (CXXPKGPKPXXC; N-acetyl; C-amide; sarcosines; HILRa-CL-12 Synthesized; Sar (2)..(2) X = Sarcosine; Sar (3)..(3) X = Sarcosine; Sar (10)..(10) X = Sarcosine; Sar (11)..(11) X = Sarcosine)",
    "CLASS": "no (0)"
  }
]

Where do these numbers come from? They come from patent US12570697B2.
